Provenance of the data: PubChem BioAssay AID651636

Target: G-protein coupled receptor 183 (Homo sapiens) (UniProt P32249)
Sequence (P32249 whole entry, looked up, the tested form may be a part): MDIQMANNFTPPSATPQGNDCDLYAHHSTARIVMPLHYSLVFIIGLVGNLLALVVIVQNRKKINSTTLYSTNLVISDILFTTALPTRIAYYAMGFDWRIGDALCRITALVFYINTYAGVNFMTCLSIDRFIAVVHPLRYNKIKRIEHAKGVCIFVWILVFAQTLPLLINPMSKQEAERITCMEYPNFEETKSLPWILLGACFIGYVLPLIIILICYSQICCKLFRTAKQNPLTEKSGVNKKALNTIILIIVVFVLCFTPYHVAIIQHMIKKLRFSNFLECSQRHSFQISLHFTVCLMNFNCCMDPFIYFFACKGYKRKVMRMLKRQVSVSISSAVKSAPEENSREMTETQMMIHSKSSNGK
Experiment: EBI2 receptor antagonists, beta-arrestin recruitment, primary screen, cell-based, luminescence, 7a,25-OHC stimulation, uHTS (AID 651636);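 further: enzyme fragment complementation signal reports receptor beta-arrestin coupling in cells; 0% = agonist plus DMSO wells and 100% = wells without agonist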
Conditions: 7a,25-OHC stimulated, at 5 µM
Screen size: about 360,000 compounds; about 3,000 (0.83%) were called active. No stated cut-off is given here; in the data, active means inhibition above about 38%; inactive means the rest. What follows is part of a selection rich in actives, with near analogues and random picks from the rest.
Outcomes you can answer with include only these: label 1 = active, label 0 = inactive

O=C(CCC(=O)N1C[C@H]2C[C@@H](C1)c1cccc(=O)n1C2)NCc1ccccc1C(F)(F)F :: label 0
COC(=O)C1=C(c2ccccc2OCc2ccccc2)C[C@@H]2CC[C@H]1N2C(=O)NCc1ccc(OC)cc1 :: label 0

Tell me the recorded outcome of this test for `CC(=O)Nc1ccccc1C(=O)OCC(=O)c1cccc2ccccc12` .
label 0

Tell me the recorded outcome of this test for Cc1cc(C)c2c(c1)NP(=S)(c1ccccc1)N2 (stereo not given) .
label 0

Tell me the recorded outcome of this test for CC(=O)OC1C2(CC3N4C(=O)C5(CO)SSC4(CC31O)C(=O)N5C)OC(C)C(C)(C)C2=O (stereo not given) .
label 1

###

Molecular target: G-protein coupled receptor 183 (Homo sapiens)
Test: EBI2 receptor antagonists, beta-arrestin recruitment, primary screen, cell-based, luminescence, 7a,25-OHC stimulation, uHTS (AID 651636);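 further: enzyme fragment complementation signal reports receptor beta-arrestin coupling in cells; 0% = agonist plus DMSO wells and 100% = wells without agonist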
Conditions: 7a,25-OHC stimulated, at 5 µM
Out of some 360,000 compounds screened, about 3,000 (0.83%) were called active. Cut-off read from the data, not from the text of the source: active = inhibition above about 38%; inactive = the rest. What follows is part of a selection rich in actives, with near analogues and random picks from the rest.
Outcomes you can answer with include only these: T (active), F (inactive)

# example entries with known answers
CCc1ccc(OCC(=O)N2CCN(CC(=O)Nc3ccccc3Cl)CC2)cc1 :: T
CCOP(=S)(OCC)C(O)CCCCCn1c(=O)c(F)cn(C2CCCO2)c1=O (stereo not given) :: F
CCC(=O)c1ccc(OCC(=O)N2CCN(CC(=O)Nc3ccc(C)cc3)CC2)cc1 :: F
COc1cccc(C(=O)N2C[C@H]3C[C@@H](C2)c2cccc(=O)n2C3)c1 :: F

Now take the following compound into account.
Tell me the recorded outcome of this test for `O=C(CN1CCCCC1)Nc1ccc(Br)cc1C(=O)c1ccccc1Cl` .
F

###

Biological target: G-protein coupled receptor 183 (Homo sapiens) (UniProt P32249)
Assay: EBI2 receptor antagonists, beta-arrestin recruitment, primary screen, cell-based, luminescence, 7a,25-OHC stimulation, uHTS (AID 651636);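 further: enzyme fragment complementation signal reports receptor beta-arrestin coupling in cells; 0% = agonist plus DMSO wells and 100% = wells without agonist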
Conditions: 7a,25-OHC stimulated, at 5 µM, hits give high values
Among all 360,000 compounds or so, about 3,000 (0.83%) were called active. What follows is part of a selection rich in actives, with near analogues and random picks from the rest.
Property: inhibition

CC(c1ccccc1)(c1ccccc1)c1ccncc1 :: 11.4% (inactive)
O=C(Cc1ccccc1[N+](=O)[O-])N1CCN(Cc2ccc3c(c2)OCO3)CC1 :: 5.95% (inactive)
CC[N+](CC)(CC)CCCCCCCCCC[N+](CC)(CC)CC :: 2.47% (inactive)
CC(C)c1ccc(OCC(=O)N2CCCN(C)CC2)cc1 :: 2.02% (inactive)
CC(C)(C)[C@]1(O)C[C@@H]2OC(=O)C[C@@]23C(=O)O[C@@H]2OC(=O)[C@H](O)[C@]213 :: -2.99% (inactive)
COC(=O)C1=C(c2ccc(OCc3ccccc3)cc2)C[C@@H]2CC[C@H]1N2C(=O)NCc1cccc(F)c1 :: 64.5% (active)
COC(=O)C1=C(c2ccc(OCc3ccccc3)cc2)C[C@@H]2CC[C@H]1N2C(=O)NCc1ccc(Cl)cc1 :: 22.1% (inactive)
CN(c1ccccc1)c1ccc([N+](=O)[O-])c2nonc12 :: 1.86% (inactive)

Briefly, inhibition measured for `CN(C)c1nc(N(C)C)nc(N(C#N)CCCl)n1` : 2.53% (inactive)
